Ref: PubChem BioAssay

# experimental target: Voltage-gated potassium channel subunit beta-2 (Rattus norvegicus)
# assay summary: KvBeta enzyme negative modulators, primary screen, biochemical, NADPH fluorescence (AID 622);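 further: slope of raw intensity against log time taken from 70 to 1610 s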
# conditions used: recombinant KvBeta, 4-cyanobenzaldehyde reduction, at 10 µM, stronger effect = higher value
Please respond with reported fluorescence slope for every item in the list.
# print the numeric value only

INPUT: Tell me the measured fluorescence slope of `CN(CC(=O)O)S(=O)(=O)c1cc(Cl)ccc1Cl` , please.
OUTPUT: -0.437

INPUT: And COc1ccc2[nH]c(C)c(CCN3C(=O)OC(C)(C)C3(C)O)c2c1 (centres undefined) ?
OUTPUT: -0.561

INPUT: And CCOC(=O)C1=C(C)Nc2nnnn2C1c1c[nH]c2ccccc12 (centres undefined) ?
OUTPUT: -0.612

INPUT: And `CCc1nnc(NC(=O)CSc2nnc(-c3cc4ccccc4cc3O)n2CC)s1` ?
OUTPUT: -0.511

###

# assay summary: inhibitors of poly I:C-induced TLR3 signaling, primary screen, cell-based, poly I:C stimulus, luciferase, 10K MLSCN set (AID 602277)
# conditions used: HEK293-TLR3 RL24 IRF3 luciferase reporter, at 10 µM, stronger effect = higher value
measurement kind: inhibition (%)
Give the quantity in %, number only.

INPUT: Tell me the measured inhibition of `COc1ccccc1CNC(=O)Nc1cccs1` , please.
OUTPUT: -0.402

INPUT: And Cc1ccc(CCNC(=O)C2CCCN2S(=O)(=O)c2ccc3c(c2)CCC(=O)N3)cc1 (configuration not stated) ?
OUTPUT: 0.529

INPUT: And `CC(C)Cn1c(N)c(C(=O)COC(=O)c2ccc3c(c2)OCCO3)c(=O)n(C)c1=O` ?
OUTPUT: -49.5

INPUT: And `O=S(=O)(Nc1ccn(-c2ccccc2)n1)c1ccc(Br)cc1` ?
OUTPUT: 17.4

INPUT: And `O=C(CCN1C(=O)COc2ccccc21)N1CCN(c2ccccn2)CC1` ?
OUTPUT: 14.6

INPUT: And `Oc1ccc(Cl)cc1-c1cc(-c2ccccc2)n[nH]1` ?
OUTPUT: -37

INPUT: And COc1ccc(-c2nc3c(c(=O)n(C)c(=O)n3C)n2CC2CC(c3ccccc3)=NO2)cc1OC (configuration not stated) ?
OUTPUT: 30.8

INPUT: And CCCNS(=O)(=O)c1ccc(C(=O)NCC2CCCO2)cc1 (configuration not stated) ?
OUTPUT: 20.7

INPUT: And `Clc1ccc(-n2nnnc2Sc2ncnc3sccc23)cc1` ?
OUTPUT: 66.8

INPUT: And `C=CCn1c(COc2ccc(Cl)cc2)nnc1SCC(=O)N1CC(=O)Nc2ccccc21` ?
OUTPUT: 4.64

INPUT: And `O=C(CNC1CCCCCC1)Nc1ccc(S(=O)(=O)NC2CC2)cc1` ?
OUTPUT: 18.7

INPUT: And Cc1ccc(-c2ccc(=O)n(CC(=O)NCCCN3CCCCC3C)n2)cc1 (configuration not stated) ?
OUTPUT: 21.8

###

# assay summary: inhibitors of E-selectin induction by TNFa, primary screen, imaging, HUVEC, immunofluorescence, MLSMR starter and 10KST1 sets (AID 487);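 further: signal is fraction of cell area covered by stained E-selectin grains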
# conditions used: HUVEC TNFalpha-induced E-selectin immunofluorescence imaging, at 2 µM; stronger effect = higher value
measurement kind: inhibition (%)
Give the quantity in %, number only.

INPUT: Tell me the measured inhibition of CCCOc1ccc(N2C(=O)CC(SCCN)C2=O)cc1 (centres undefined) , please.
OUTPUT: -48.7

INPUT: And `CC(C)c1nnc(NC(=O)C2CCCCC2)s1` ?
OUTPUT: 20.2

INPUT: And `CCN(CC)C(=O)Cn1c(=O)n(Cc2ccccc2Cl)c2c1c(=O)n(C)c(=O)n2C` ?
OUTPUT: 49

INPUT: And CCOC(=O)N1CCN(C2OC(=O)c3ccccc32)CC1 (centres undefined) ?
OUTPUT: -125

INPUT: And CCOc1ccc(NC(=O)c2ccc3c(c2)N(Cc2ccc(F)cc2)C(=O)CS3=O)cc1 (centres undefined) ?
OUTPUT: -25.6

INPUT: And `Cc1ccc2cc(CNC(C)(C)C)c(=O)[nH]c2c1` ?
OUTPUT: -5

INPUT: And `CCCCCc1c(C)nc(N2CCc3ccccc32)[nH]c1=O` ?
OUTPUT: -5.8

INPUT: And CCOc1ccc(C2CC(c3ccccc3)Nc3nc(N)nn32)cc1 (centres undefined) ?
OUTPUT: -80.6

INPUT: And `Cc1cc(=O)oc(C)c1C(=O)NC1CC(C)(C)NC(C)(C)C1` ?
OUTPUT: -70.2

INPUT: And CCN1C(=O)CC(N2CCC(Nc3ccc(F)cc3)CC2)C1=O (centres undefined) ?
OUTPUT: -72

INPUT: And CCOCCCNC(=O)CC1Oc2ccc(C)cc2NC1=O (centres undefined) ?
OUTPUT: -6.5

INPUT: And O=C(C1CCN(C2CC(=O)N(c3ccc(F)cc3)C2=O)CC1)N1CCOCC1 (centres undefined) ?
OUTPUT: 12.7

INPUT: And `CCOC(=O)C1=C(O)CCn2c1nc1ccccc12` ?
OUTPUT: -214

INPUT: And `N#Cc1c2c(c(-c3ccco3)[nH]c1=O)CCCC2` ?
OUTPUT: -60.2

INPUT: And `COc1ccc(OC)c2[nH]c(=O)c(CCNC(=O)C(C)C)cc12` ?
OUTPUT: -27.3

INPUT: And `CCOC(=O)c1cc(-c2ccc(N)cc2)sc1N` ?
OUTPUT: 26.4

INPUT: And `C=CCN=C(C)C1=C(O)CCC1=O` ?
OUTPUT: -33.6

INPUT: And `CC(=O)c1cc(F)c(N2CCN(C(=O)Cc3ccccc3)CC2)cc1C` ?
OUTPUT: -25.8

INPUT: And COc1ccccc1NC(=O)C1=C(C)Nc2nc(CCCO)nn2C1c1cccnc1 (centres undefined) ?
OUTPUT: -30.7

###

# assay summary: inhibitors of TNFa-induced NFkB p65 translocation, primary screen, imaging, HUVEC, MLSMR starter and 10KST1 sets (AID 438);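 further: compound added about 3h40 before a 20 min TNFalpha stimulation; signal is the nuclear over cytoplasmic p65 intensity ratio per well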
# conditions used: HUVEC TNFa-induced p65 nuclear translocation; at 2 µM, stronger effect = higher value, 0% TNFa-plus-vehicle, 100% no-TNFa wells
measurement kind: inhibition (%)
Give the quantity in %, number only.

INPUT: Tell me the measured inhibition of `CCOC(=O)C(CCc1nnc(N)s1)C(=O)OCC` , please.
OUTPUT: -6.3

INPUT: And `CC(C)(C)C1=Nn2c(nnc2C2CCCCC2)SC1` ?
OUTPUT: -5.9

INPUT: And `c1ccc(-n2c(Cc3cccnc3)nc3cnccc32)cc1` ?
OUTPUT: -2.4

INPUT: And `CCCCCCOc1ccc(C(=O)n2cnc(N)n2)cc1` ?
OUTPUT: -4.5

INPUT: And `O=C(Cn1ncc2c1-c1ccccc1OC2)N1CCc2ccccc21` ?
OUTPUT: 4.4

INPUT: And `CCOC(=O)c1c(-c2cccs2)csc1NC(=O)c1ccncc1` ?
OUTPUT: -0.7

INPUT: And Cc1cc(NC(=O)c2cccc(S(=O)(=O)N3CC(c4ccccc4)CC3=O)c2)no1 (centres undefined) ?
OUTPUT: -1.2

INPUT: And `CCOc1ccc2nc(SCc3ccc(C(=O)OC)o3)[nH]c2c1` ?
OUTPUT: 15.9

INPUT: And `COc1ccc(C(=O)Oc2c(CN3CCOCC3)cc(Cl)c3cccnc23)cc1OC` ?
OUTPUT: -2.4

INPUT: And `C(=N\n1cnnc1)/c1cccc(Oc2ccccc2)c1` ?
OUTPUT: -5.8

INPUT: And `Cn1c(OCc2cccnc2)nc2c1c(=O)n(Cc1ccc(Br)cc1)c(=O)n2C` ?
OUTPUT: -15.3

INPUT: And `CCS(=O)(=O)N1CCC(C(=O)NC2CCCCCCC2)CC1` ?
OUTPUT: -9.4

INPUT: And `Cn1c(SCC(=O)Nc2ccc3c(c2)OCO3)nnc1-c1cnccn1` ?
OUTPUT: 6.5

INPUT: And `COc1cc(NC(=O)c2cccs2)cc(OC)c1` ?
OUTPUT: -14.2

INPUT: And `C=CCOc1ccccc1/C=c1\sc2nc(=O)c(C)nn2c1=O` ?
OUTPUT: -11.1

INPUT: And `CCCN1CCN(CCCNC(=O)Cn2ncc3c4ccccc4n(C)c3c2=O)CC1` ?
OUTPUT: -3

INPUT: And `CN(Cc1ccccc1)c1nc2c(c(=O)[nH]c(=O)n2C)n1Cc1ccccc1Cl` ?
OUTPUT: -1

INPUT: And `COc1cccc(Cn2c(NCc3ccccn3)nc3c2c(=O)n(C)c(=O)n3C)c1` ?
OUTPUT: -20.9

INPUT: And `O=C(O)c1cc2sccc2s1` ?
OUTPUT: 0

INPUT: And COc1ccc(C2NC3=C(CCC3)C3(C#N)C(OC)(OC)N=C(N)C23C#N)cc1 (centres undefined) ?
OUTPUT: -13.1

INPUT: And `COc1ccc(CCn2c(=N)c(C(=O)NCc3ccco3)cc3c(=O)n4ccccc4nc32)cc1OC` ?
OUTPUT: -2.8

INPUT: And `CCCc1nc2n[nH]c(N)c2c2c1CCCC2` ?
OUTPUT: -12.3

INPUT: And `CCN(CC)C(=O)Cn1c(=O)n(Cc2ccccc2Cl)c2c1c(=O)n(C)c(=O)n2C` ?
OUTPUT: -6.4

INPUT: And `COCCCn1c2nc3ccccc3nc2c2c(=O)n(-c3ccccc3OC)c(C)nc21` ?
OUTPUT: -8.6

INPUT: And `O=C(CN1CCN(Cc2ccc3c(c2)OCO3)CC1)Nc1ccc2c(c1)OCCO2` ?
OUTPUT: -3

INPUT: And `Cc1nc2ccccc2c2oc(C(=O)NCCCN3CCCC3=O)cc12` ?
OUTPUT: 1.3

INPUT: And `COC(=O)/C=c1/s/c(=C(\C#N)C(=O)NCc2ccco2)n(-c2ccccc2)c1=O` ?
OUTPUT: 0.2

INPUT: And CCCOc1cccc(C2/C(=C(/O)c3ccc(F)cc3)C(=O)C(=O)N2CCN(C)C)c1 (centres undefined) ?
OUTPUT: -13.2

INPUT: And `CCCCNC(=O)c1nnn(-c2ccccc2)c1N` ?
OUTPUT: 3.9

INPUT: And `COc1ccc(-n2ncc3c(N4CCC(C(N)=O)CC4)ncnc32)cc1` ?
OUTPUT: -18.6

INPUT: And `COc1ccc(CCn2c(C)cc(C(=O)CSc3nnnn3C)c2C)cc1` ?
OUTPUT: -1.5

INPUT: And `Cn1c(C(=O)Nc2ccc3c(c2)OCO3)cc2c(=O)n(C)c3ccccc3c21` ?
OUTPUT: 7

INPUT: And `C=CCSc1nc2sc(C)c(C)c2c(=O)[nH]1` ?
OUTPUT: 1.4

INPUT: And CC(NC(=O)c1ccc(=O)oc1)c1ccccc1 (centres undefined) ?
OUTPUT: 4.1

INPUT: And `CN(C(=O)c1ccc2c(=O)n3c(nc2c1)CCCCC3)c1ccccc1` ?
OUTPUT: -10.7

INPUT: And `O=C(NC1CCCCC1)c1cc2nc(-c3ccco3)cc(C(F)(F)F)n2n1` ?
OUTPUT: -5.7

INPUT: And O=C(NCCC1=CCCCC1)C1CC(=O)N(C2CCCCCC2)C1 (centres undefined) ?
OUTPUT: -4.4

INPUT: And Cc1ccc(N(CN2C(=O)C3CC=CCC3C2=O)C(=O)c2ccco2)cc1Cl (centres undefined) ?
OUTPUT: -4.5

INPUT: And `CCC(=O)N1CCN=C1SCc1ccc(Cl)cc1` ?
OUTPUT: -4.9
